- assayOverview: In vivo pharmacokinetics in plasma after oral gavage
- experimentalConditions: mouse; Compound A in plasma, single PO dose 60.00 mg/kg, male CD-1 mice, single agent or with enzalutamide
experimentalReadout: Cmax (ng/mL)

> print(dat)
                                smilesentry  result
1  CC(C)(c1ccc(OCc2ccnc(NS(C)(=O)=O)n2)cc1)c1cc(Cl)c(OCCCl)c(C#N)c1   41700

====

- assayOverview: In vivo pharmacokinetics in plasma after oral gavage
- experimentalConditions: mouse; enzalutamide in plasma, single PO dose 15.0 mg/kg, male CD-1 mice, single agent or with Compound A
experimentalReadout: Tmax (h)

> print(dat)
                                   molecule  result
1  CNC(=O)c1ccc(N2C(=S)N(c3ccc(C#N)c(C(F)(F)F)c3)C(=O)C2(C)C)cc1F [Enzalutamide, enzalutamide, reference compound]       9
